Known Enzyme degradation CDK2 (% remaining) @ 1 μM of a selection of molecules
- Target: CDK2 (Homo sapiens, UniProt P24941)
- Construct: endogenous in cells; host or cells: MDA-MB-231
- Test Details: CDK protein degradation activity (Western blotting), CDK2
- Format: cell-based
- Test Context: MDA-MB-231 cells, 1 μM, 16 hours, Western blot
Measure Name: Enzyme degradation CDK2 (% remaining) @ 1 μM (%)

>  <Molecule>
Cc1cccc(C(=O)N[C@H]2C[C@@H](n3cnc4c(NCc5ccc(OCC6CCN(C(=O)CNc7cccc8c7C(=O)N([C@H]7CCC(=O)NC7=O)C8=O)CC6)cc5)ncnc43)C2)n1

>  <Observed Value>
60

$$$$
>  <Molecule>
O=C1CC[C@H](N2C(=O)C=C(Nc3cccc(CC(=O)N4CCC(CN5CCN(c6ccc(Nc7ncnc8c7ncn8C7CC(NC(=O)Cc8ccccc8)C7)cc6)CC5)CC4)c3)C2=O)C(=O)N1 (some centres unmarked)

>  <Observed Value>
70

$$$$
>  <Molecule>
Cc1cccc(C(=O)NC2CC(n3cnc4c(NCCC5CCN(CC6CCN(C(=O)CNc7cccc8c7C(=O)N([C@H]7CCC(=O)NC7=O)C8=O)CC6)CC5)ncnc43)C2)n1 (some centres unmarked)

>  <Observed Value>
10

$$$$
>  <Molecule>
Cc1cccc(C(=O)N[C@H]2C[C@@H](n3cnc4c(NCCC5CCN(CC6CCN(C(=O)COc7ccc8c(c7)C(=O)N([C@H]7CCC(=O)NC7=O)C8=O)CC6)CC5)ncnc43)C2)n1

>  <Observed Value>
20

$$$$
>  <Molecule>
N#Cc1cccc(C(=O)NC2CC(n3cnc4c(Nc5ccc(N6CCN(CC7CCN(C(=O)C8CCN(c9cc%10c(cc9F)C(=O)N([C@H]9CCC(=O)NC9=O)C%10=O)CC8)CC7)CC6)cc5)ncnc43)C2)n1 (some centres unmarked)

>  <Observed Value>
40

$$$$

* * *

- Target: CDK2 (Homo sapiens)
- Construct: endogenous in cells; host or cells: MDA-MB-231
- Test Details: CDK protein degradation activity (Western blotting), CDK2
- Assay type: cell-based
- Test Context: MDA-MB-231 cells, 10 μM, 16 hours, Western blot
Label 1 when Enzyme degradation CDK2 (% remaining) @ 10 μM is strictly below 50%; at or above that, label -1.

>  <Molecule>
O=C1CC[C@H](N2C(=O)c3ccc(OCC(=O)N4CCC(CN5CCN(c6ccc(Nc7ncnc8c7ncn8C7CC(NC(=O)Cc8ccccc8)C7)cc6)CC5)CC4)cc3C2=O)C(=O)N1 (stereo partly shown)

>  <Target>
CDK2 (Homo sapiens)

>  <Assigned Category>
1

$$$$
>  <Molecule>
Cc1cccc(C(=O)N[C@H]2C[C@@H](n3cnc4c(NC5CCN(CCC6CCN(C(=O)CNc7cccc8c7C(=O)N(C7CCC(=O)NC7=O)C8=O)CC6)CC5)ncnc43)C2)n1 (stereo partly shown)

>  <Target>
CDK2 (Homo sapiens)

>  <Assigned Category>
-1

$$$$
>  <Molecule>
O=C1CC[C@H](N2C(=O)C=C(Nc3cccc(CC(=O)N4CCC(CN5CCN(c6ccc(Nc7ncnc8c7ncn8C7CC(NC(=O)Cc8ccccc8)C7)cc6)CC5)CC4)c3)C2=O)C(=O)N1 (stereo partly shown)

>  <Target>
CDK2 (Homo sapiens)

>  <Assigned Category>
-1

$$$$
>  <Molecule>
O=C1CC[C@H](N2C(=O)c3cc(F)c(N4CCN(CC5CCN(c6ccc(Nc7ncnc8c7ncn8C7CC(NC(=O)c8c(Cl)cccc8Cl)C7)cc6)CC5)CC4)cc3C2=O)C(=O)N1 (stereo partly shown)

>  <Target>
CDK2 (Homo sapiens)

>  <Assigned Category>
1

$$$$
